experiment: Pharmacokinetic study of AWRK6 in rats after intraperitoneal or intravenous injection, plasma LC-MS/MS; type: in vivo, rat; conditions: rat, ip, 4.7 mg/kg; male Sprague Dawley rats, single i.p. 4.700 mg/kg, plasma, LC-MS/MS, mean ± SD, n = 6; read-out: Vz/F
No end group written: not given here.
Readout label: Vd/F (L/kg)
Numbers only, in L/kg.

Return the recorded Vd/F value; entry: SWVGKHGKKFGLKKHKKH-NH2 (C-terminus assumed) [AWRK6]
12.3

###

experiment: Pharmacokinetic study of AWRK6 in rats after intraperitoneal or intravenous injection, plasma LC-MS/MS; format: in vivo, rat; settings: rat, ip, 9.4 mg/kg; male Sprague Dawley rats, single i.p. 9.400 mg/kg, plasma, LC-MS/MS, mean ± SD, n = 6; read-out: t1/2z (converted)
No end group written: not given here.
Readout label: half-life (h)
One number for each entry, in h.

Return the recorded half-life value; entry: SWVGKHGKKFGLKKHKKH-NH2 (C-terminus assumed) [AWRK6]
2.78

###

experiment: Pharmacokinetic study of AWRK6 in rats after intraperitoneal or intravenous injection, plasma LC-MS/MS; assay type: in vivo, rat; conditions: rat, ip, 9.4 mg/kg; male Sprague Dawley rats, single i.p. 9.400 mg/kg, plasma, LC-MS/MS, mean ± SD, n = 6; read-out: MRT(0–t)
No end group written: not given here.
Readout label: MRT (h)
Give bare numbers, in h.

Return the recorded MRT value; entry: SWVGKHGKKFGLKKHKKH-NH2 (C-terminus assumed) [AWRK6]
2.52

###

experiment: Pharmacokinetic study of AWRK6 in rats after intraperitoneal or intravenous injection, plasma LC-MS/MS; format: in vivo, rat; settings: rat, ip, 9.4 mg/kg; male Sprague Dawley rats, single i.p. 9.400 mg/kg, plasma, LC-MS/MS, mean ± SD, n = 6
No end group written: not given here.
Readout label: Tmax

Return the recorded Tmax value; entry: SWVGKHGKKFGLKKHKKH-NH2 (C-terminus assumed) [AWRK6]
1.21 h

###

assay: Pharmacokinetic study of AWRK6 in rats after intraperitoneal or intravenous injection, plasma LC-MS/MS; assay type: in vivo, rat; details: rat, ip, 2.35 mg/kg; male Sprague Dawley rats, single i.p. 2.350 mg/kg, plasma, LC-MS/MS, mean ± SD, n = 6; read-out: t1/2z (converted)
No end group written: not given here.
Readout label: half-life (min)
Answers are plain numbers, in min.

Return the recorded half-life value; entry: SWVGKHGKKFGLKKHKKH-NH2 (C-terminus assumed) [AWRK6]
177

###

assay: Pharmacokinetic study of AWRK6 in rats after intraperitoneal or intravenous injection, plasma LC-MS/MS; format: in vivo, rat; conditions: rat, ip, 4.7 mg/kg; male Sprague Dawley rats, single i.p. 4.700 mg/kg, plasma, LC-MS/MS, mean ± SD, n = 6; read-out: MRT(0–t)
No end group written: not given here.
Readout label: MRT
Phrase the answer as number then unit, nothing more needed.

Return the recorded MRT value; entry: SWVGKHGKKFGLKKHKKH-NH2 (C-terminus assumed) [AWRK6]
2.49 h

###

Experiment: Pharmacokinetic study of AWRK6 in rats after intraperitoneal or intravenous injection, plasma LC-MS/MS
Type: in vivo, rat
Conditions: rat, ip, 9.4 mg/kg; male Sprague Dawley rats, single i.p. 9.400 mg/kg, plasma, LC-MS/MS, mean ± SD, n = 6
Description: The samples were analyzed on a LC-MS/MS system consisting of an Agilent 1290 Infinity II UHPLC System coupled with an Agilent 6460 Triple Quadrupole Mass Spectrometer with an electrospray ionisation source (ESI). […] SPF-grade male Sprague Dawley rats (280–320 g, 8 weeks old) were purchased from Liaoning Changsheng Biotechology (Liaoning, China). […] The obtained data were analyzed using DAS 2.0 software (Anhui Provincial Center for Drug Clinical Evaluation). […]
No end group written: not given here.
Readout label: AUC(0-inf) (ng·h/mL)
Numbers only, in ng·h/mL.

Return the recorded AUC(0-inf) value; entry: SWVGKHGKKFGLKKHKKH-NH2 (C-terminus assumed) [AWRK6]
2910

###

assay: Pharmacokinetic study of AWRK6 in rats after intraperitoneal or intravenous injection, plasma LC-MS/MS; format: in vivo, rat; conditions: rat, ip, 9.4 mg/kg; male Sprague Dawley rats, single i.p. 9.400 mg/kg, plasma, LC-MS/MS, mean ± SD, n = 6
No end group written: not given here.
Readout label: AUC(0-t) (ng·h/mL)
Answers are plain numbers, in ng·h/mL.

Return the recorded AUC(0-t) value; entry: SWVGKHGKKFGLKKHKKH-NH2 (C-terminus assumed) [AWRK6]
2630

###

Test: Pharmacokinetic study of AWRK6 in rats after intraperitoneal or intravenous injection, plasma LC-MS/MS
Format: in vivo, rat
Details: rat, ip, 2.35 mg/kg; male Sprague Dawley rats, single i.p. 2.350 mg/kg, plasma, LC-MS/MS, mean ± SD, n = 6; read-out: Vz/F
Method: The samples were analyzed on a LC-MS/MS system consisting of an Agilent 1290 Infinity II UHPLC System coupled with an Agilent 6460 Triple Quadrupole Mass Spectrometer with an electrospray ionisation source (ESI). […] SPF-grade male Sprague Dawley rats (280–320 g, 8 weeks old) were purchased from Liaoning Changsheng Biotechology (Liaoning, China). […] The obtained data were analyzed using DAS 2.0 software (Anhui Provincial Center for Drug Clinical Evaluation). […]
No end group written: not given here.
Readout label: Vd/F
Phrase the answer as number then unit, nothing more needed.

Return the recorded Vd/F value; entry: SWVGKHGKKFGLKKHKKH-NH2 (C-terminus assumed) [AWRK6]
10.9 L/kg

###

Test: Pharmacokinetic study of AWRK6 in rats after intraperitoneal or intravenous injection, plasma LC-MS/MS
Type: in vivo, rat
Conditions: rat, iv, 4.7 mg/kg; male Sprague Dawley rats, single i.v. 4.700 mg/kg (tail vein), plasma, LC-MS/MS, mean ± SD, n = 6
Protocol: The samples were analyzed on a LC-MS/MS system consisting of an Agilent 1290 Infinity II UHPLC System coupled with an Agilent 6460 Triple Quadrupole Mass Spectrometer with an electrospray ionisation source (ESI). […] SPF-grade male Sprague Dawley rats (280–320 g, 8 weeks old) were purchased from Liaoning Changsheng Biotechology (Liaoning, China). […] The obtained data were analyzed using DAS 2.0 software (Anhui Provincial Center for Drug Clinical Evaluation). […]
No end group written: not given here.
Readout label: AUC(0-t) (ng·h/mL)
Numbers only, in ng·h/mL.

Return the recorded AUC(0-t) value; entry: SWVGKHGKKFGLKKHKKH-NH2 (C-terminus assumed) [AWRK6]
2600

###

experiment: Pharmacokinetic study of AWRK6 in rats after intraperitoneal or intravenous injection, plasma LC-MS/MS; type: in vivo, rat; conditions: rat, ip, 9.4 mg/kg; male Sprague Dawley rats, single i.p. 9.400 mg/kg, plasma, LC-MS/MS, mean ± SD, n = 6
No end group written: not given here.
Readout label: Cmax

Return the recorded Cmax value; entry: SWVGKHGKKFGLKKHKKH-NH2 (C-terminus assumed) [AWRK6]
888 ng/mL

###

assay: Pharmacokinetic study of AWRK6 in rats after intraperitoneal or intravenous injection, plasma LC-MS/MS; type: in vivo, rat; settings: rat, ip, 2.35 mg/kg; male Sprague Dawley rats, single i.p. 2.350 mg/kg, plasma, LC-MS/MS, mean ± SD, n = 6
No end group written: not given here.
Readout label: Tmax
Phrase the answer as number then unit, nothing more needed.

Return the recorded Tmax value; entry: SWVGKHGKKFGLKKHKKH-NH2 (C-terminus assumed) [AWRK6]
1.17 h

###

experiment: Pharmacokinetic study of AWRK6 in rats after intraperitoneal or intravenous injection, plasma LC-MS/MS; assay type: in vivo, rat; conditions: rat, ip, 2.35 mg/kg; male Sprague Dawley rats, single i.p. 2.350 mg/kg, plasma, LC-MS/MS, mean ± SD, n = 6
No end group written: not given here.
Readout label: Cmax (ng/mL)
Give bare numbers, in ng/mL.

Return the recorded Cmax value; entry: SWVGKHGKKFGLKKHKKH-NH2 (C-terminus assumed) [AWRK6]
217

###

test: Pharmacokinetic study of AWRK6 in rats after intraperitoneal or intravenous injection, plasma LC-MS/MS; format: in vivo, rat; settings: rat, ip, 4.7 mg/kg; male Sprague Dawley rats, single i.p. 4.700 mg/kg, plasma, LC-MS/MS, mean ± SD, n = 6
No end group written: not given here.
Readout label: AUC(0-inf) (ng·h/mL)
Give bare numbers, in ng·h/mL.

Return the recorded AUC(0-inf) value; entry: SWVGKHGKKFGLKKHKKH-NH2 (C-terminus assumed) [AWRK6]
1590

###

experiment: Pharmacokinetic study of AWRK6 in rats after intraperitoneal or intravenous injection, plasma LC-MS/MS; type: in vivo, rat; details: rat, ip, 9.4 mg/kg; male Sprague Dawley rats, single i.p. 9.400 mg/kg, plasma, LC-MS/MS, mean ± SD, n = 6; read-out: Vz/F
No end group written: not given here.
Readout label: Vd/F (L/kg)
One number for each entry, in L/kg.

Return the recorded Vd/F value; entry: SWVGKHGKKFGLKKHKKH-NH2 (C-terminus assumed) [AWRK6]
12.7

This collection of values is drawn from paper PMC8746970.
